Target: T1, human PD-L1-Fc protein (human, UniProt Q9NZQ7 19-239)
T1 construct: Bought from R&D Systems; also called immobilised PD-L1-Fc; not shown: Fc part of the bought fusion protein, not described
T1 sequence (Q9NZQ7 19-239 limits assumed): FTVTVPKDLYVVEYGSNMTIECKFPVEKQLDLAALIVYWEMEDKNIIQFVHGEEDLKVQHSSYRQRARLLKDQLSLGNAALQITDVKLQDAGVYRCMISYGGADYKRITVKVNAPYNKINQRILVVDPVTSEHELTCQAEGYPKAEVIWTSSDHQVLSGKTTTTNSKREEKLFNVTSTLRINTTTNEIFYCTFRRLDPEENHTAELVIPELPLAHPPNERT
Assay: ELISA, Fab on coated human PD-L1-Fc, pH 6
Readout: pEC50
// pEC50 here means minus log10 of the molar concentration (mol/L)

Reference set (3 entries):
Binder	pEC50
Fab 8G08 (Fab, V domains shown, Purified Fab prepared from IgG with the Pierce kit; also called 8G08 Fab) VH: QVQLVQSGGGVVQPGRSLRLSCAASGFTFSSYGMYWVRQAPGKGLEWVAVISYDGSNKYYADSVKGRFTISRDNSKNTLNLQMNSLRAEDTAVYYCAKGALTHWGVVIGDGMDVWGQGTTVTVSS VL: NFMLTQPHSVSESPGKTVTISCISNDVPASGHYHRWYQQRPGSSPTTVIYEDDQRPSGVPDRFSGSIDSSSNSASLTISGLKTEDEADYYCQSFDSTNPWVFGGGTKLTVL	10.00
Fab 8D04 (Fab, V domains shown, Purified Fab prepared from IgG with the Pierce kit; also called 8D04 Fab) VH: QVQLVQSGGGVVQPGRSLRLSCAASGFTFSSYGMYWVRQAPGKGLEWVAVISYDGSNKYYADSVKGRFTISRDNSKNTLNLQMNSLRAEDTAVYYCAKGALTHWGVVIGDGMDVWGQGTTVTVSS VL: NFMLTQPHSVSESPGKTVTISCRGTGSSFHHKYVRWYQQRPGSSPTTVIYEDDQRPSGVPDRFSGSIDSSSNSASLTISGLKTEDEADYYCQSFDSTNPWVFGGGTKLTVL	8.58
Fab 8A04 (Fab, V domains shown, Purified Fab prepared from IgG with the Pierce kit; also called 8A04 Fab) VH: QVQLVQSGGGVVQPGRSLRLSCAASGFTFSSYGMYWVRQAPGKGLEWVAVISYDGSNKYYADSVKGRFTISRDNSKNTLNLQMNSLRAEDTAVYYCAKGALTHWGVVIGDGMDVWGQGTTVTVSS VL: NFMLTQPHSVSESPGKTVTISCMRTGTGNKGHYTRWYQQRPGSSPTTVIYEDDQRPSGVPDRFSGSIDSSSNSASLTISGLKTEDEADYYCQSFDSTNPWVFGGGTKLTVL	9.27

Now take the following binder into account.
Short answer for Fab 8D06 (Fab, V domains shown, Purified Fab prepared from IgG with the Pierce kit; also called 8D06 Fab) VH: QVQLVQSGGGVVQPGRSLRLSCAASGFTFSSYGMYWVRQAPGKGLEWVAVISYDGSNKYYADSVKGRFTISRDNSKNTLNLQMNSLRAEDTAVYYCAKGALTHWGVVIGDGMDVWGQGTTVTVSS VL: NFMLTQPHSVSESPGKTVTISCVLSPRTHAGHYYRWYQQRPGSSPTTVIYEDDQRPSGVPDRFSGSIDSSSNSASLTISGLKTEDEADYYCQSFDSTNPWVFGGGTKLTVL : pEC50 was 9.96
